- protocol.notes: in vitro
- conditions: human
readout.kind: IC50 at 72 h (µM)
Please respond with the number in µM and leave the unit unwritten.

Answer with reported IC50 at 72 h of Oc1ccc(/C=C/c2cc(O)cc(O)c2)cc1 56.6

* * *

- System: S.aureus LMG10147
- protocol.notes: microbe, parasite or virus in culture
- Format: cell-based, Staphylococcus aureus
- conditions: Staphylococcus aureus, LMG10147, 20 h, read-out: Minimal Inhibition Concentration (MIC) S.aureus LMG10147
Binary label based on MIC with cut-off 30 µM: below gives Yes, not below gives No.

Reference set, count: 7
compound: CC(C)[Si](Oc1cc(O)cc(/C=C/c2ccc(O)cc2)c1)(C(C)C)C(C)C [compound 32]
answer.label: Yes
--
compound: COc1cc(/C=C/c2ccc(O[C@@H]3O[C@H](C(=O)O)[C@@H](O)[C@H](O)[C@H]3O)cc2)cc(OC)c1 [compound 30, PTER glucuronate]
answer.label: No
--
compound: CCCCOc1ccc(/C=C/c2cc(OS(=O)(=O)O)cc(OS(=O)(=O)O)c2)cc1 [compound 14, 4′-butyl-3,5-disulfate resveratrol]
answer.label: No
--
compound: CCCCCCCCCCCC(=O)OC[C@H]1O[C@@H](Oc2cc(O)cc(/C=C/c3ccc(O)cc3)c2)[C@H](O)[C@@H](O)[C@@H]1O [compound 4]
answer.label: Yes
--
compound: CCCCCCCC(=O)OC[C@H]1O[C@@H](Oc2cc(/C=C/c3ccc(OC)cc3)cc(OC)c2)[C@H](O)[C@@H](O)[C@@H]1O [compound 28]
answer.label: No
--
compound: CC(C)[Si](Oc1ccc(/C=C/c2cc(O)cc(O)c2)cc1)(C(C)C)C(C)C [compound 33]
answer.label: No
--
compound: CCCCOc1cc(/C=C/c2ccc(OS(=O)(=O)O)cc2)cc(OS(=O)(=O)O)c1 [compound 15, 3-butyl-4′,5-disulfate resveratrol]
answer.label: Yes

# ---- query compound ----
Please state whether MIC is below 30 µM for CC(C)[Si](Oc1cc(/C=C/c2ccc(OS(=O)(=O)O)cc2)cc(OS(=O)(=O)O)c1)(C(C)C)C(C)C [compound 35] Yes

* * *

- System: E. faecalis V583
- protocol.notes: microbe, parasite or virus in culture
- Assay type: cell-based, Enterococcus faecalis
- conditions: Enterococcus faecalis, V583, 20 h, read-out: Minimal Inhibition Concentration (MIC) E. faecalis V583
// reported MIC per item
Please respond with the number in µM and leave the unit unwritten.

The following compounds have reported results that may help.
compound: CC(C)[Si](Oc1cc(O)cc(/C=C/c2ccc(O)cc2)c1)(C(C)C)C(C)C
system.under.test: E. faecalis V583
value.units: µM
MIC: 8

compound: COc1cc(/C=C/c2ccc(O[C@@H]3O[C@H](C(=O)O)[C@@H](O)[C@H](O)[C@H]3O)cc2)cc(OC)c1 [compound 30, PTER glucuronate]
system.under.test: E. faecalis V583
value.units: µM
MIC: 128

compound: CC(C)[Si](Oc1cc(/C=C/c2ccc(OS(=O)(=O)O)cc2)cc(OS(=O)(=O)O)c1)(C(C)C)C(C)C
system.under.test: E. faecalis V583
value.units: µM
MIC: 16

Answer with reported MIC of CCCCOc1ccc(/C=C/c2cc(OS(=O)(=O)O)cc(OS(=O)(=O)O)c2)cc1 [compound 14, 4′-butyl-3,5-disulfate resveratrol] 64

Answer with reported MIC of CC(C)[Si](Oc1ccc(/C=C/c2cc(O[Si](C(C)C)(C(C)C)C(C)C)cc(OS(=O)(=O)O)c2)cc1)(C(C)C)C(C)C 128

Answer with reported MIC of CCCCCCCCCCCCCCCCCC(=O)OC[C@H]1O[C@@H](Oc2cc(O)cc(/C=C/c3ccc(O)cc3)c2)[C@H](O)[C@@H](O)[C@@H]1O [compound 6, piceid stearate] 128
